Value source: patent US20200332017A1

Each entry below lists one item and its recorded absorbance at 450 nm value.
Biological target: T1, human CD40-Fc protein (amino acid residue 21-193 of SEQ ID NO: 67 linked to N-terminus of amino acid residue … (human, biotin-labeled in the capture ELISA and in the benchmark blocking ELISA; unlabeled when coated in the ligand blocking ELISA)
T1 construct: also called biotin-labeled human CD40-Fc; human CD40-Fc-biotin
T1 sequence (chain, as listed by the source): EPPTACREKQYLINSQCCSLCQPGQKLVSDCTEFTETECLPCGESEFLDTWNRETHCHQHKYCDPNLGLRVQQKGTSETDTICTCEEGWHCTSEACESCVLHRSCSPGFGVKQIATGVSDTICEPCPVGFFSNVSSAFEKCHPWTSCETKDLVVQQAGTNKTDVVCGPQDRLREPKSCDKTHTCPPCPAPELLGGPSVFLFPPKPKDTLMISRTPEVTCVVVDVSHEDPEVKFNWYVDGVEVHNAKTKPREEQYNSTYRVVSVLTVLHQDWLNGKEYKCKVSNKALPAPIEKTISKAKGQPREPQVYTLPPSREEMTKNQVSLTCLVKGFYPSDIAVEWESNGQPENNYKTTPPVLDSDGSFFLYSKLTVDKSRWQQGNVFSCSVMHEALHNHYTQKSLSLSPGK
Assay: capture ELISA, biotin human CD40-Fc; mAb at 400 ng/mL

- binder: "humanized antibody huC1C1-V4 (antibody, human IgG1, kappa, V domains shown, Human IgG1/kappa) VH: EVQLVESGGGVVQPGRSLRLSCAASGFTFSNYGMSWVRQAPGKGLEWVASISSGGDDTYYPDNVKGRCTISRDNSKNTLYLQMNSLRAEDTAVYYCTRAGGKAMDYWGQGTLVTVSS VL: EIVLTQSPATLSLSPGERATLSCRASQSIRDNLHWYQQKPGQSPRLLIYYASQSISGIPARFSGSGSGTDFTLTISSLEPEDFAVYFCQQFNSWPLTFGQGTKVEIKR"
  absorbance at 450 nm, OD450: 1.63
- binder: "humanized antibody huC1C1-V5 (antibody, human IgG1, kappa, V domains shown, Human IgG1/kappa; also called humanized C1C1-V5) VH: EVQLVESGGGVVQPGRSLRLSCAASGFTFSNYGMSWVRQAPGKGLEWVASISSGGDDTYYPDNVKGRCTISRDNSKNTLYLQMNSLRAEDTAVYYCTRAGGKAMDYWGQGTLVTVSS VL: EIVLTQSPATLSLSPGERATLSCRASQSIRDNLHWYQQKPGQSPRLLINYASQSISGIPARFSGSGSGTDFTLTISSLEPEDFAVYYCQQFNSWPLTFGQGTKVEIKR"
  absorbance at 450 nm, OD450: 1.66
- binder: "chimeric antibody C1C1 (antibody, human IgG1, kappa, V domains shown, also called chC1C1; chimeric C1C1) VH: EVKLVESGGGLVKPGASLKLSCAASGFTFSNYGMSWVRQNSDKRLEWVASISSGGDDTYYPDNVKGRCTISRENAKNTLYLEMSSLKTEDTALYYCTRAGGKAMDYWGQGTSVTVST VL: DIVLTQSPATLSVIPGNSVSLSCRASQSIRDNLHWYQQKSHESPRLLINYASQSISGIPSRFSGSGSGTDFTLTINSVETEDFGIYFCQQFNSWPLTFGGGTKLELKR"
  absorbance at 450 nm, OD450: 1.79
- binder: "mouse anti-CD40 monoclonal antibody C1C1 (antibody, V domains shown, those are used here for the chimeric antibody only; also called Mouse C1C1; mouse C1C1) VH: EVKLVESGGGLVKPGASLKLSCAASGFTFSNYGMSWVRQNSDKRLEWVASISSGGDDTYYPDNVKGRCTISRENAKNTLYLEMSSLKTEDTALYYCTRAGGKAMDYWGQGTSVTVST VL: DIVLTQSPATLSVIPGNSVSLSCRASQSIRDNLHWYQQKSHESPRLLINYASQSISGIPSRFSGSGSGTDFTLTINSVETEDFGIYFCQQFNSWPLTFGGGTKLELK"
  absorbance at 450 nm, OD450: 1.69
